Species: Homo sapiens
Experiment: Selectivity for human adenosine A2A receptor over human adenosine A1 receptor
property.name: Selectivity ratio

Sample records with Selectivity ratio:
Nc1nc2c(ncn2CCN2CCN(c3ccc(F)cc3F)CC2)c2nc(-c3ccco3)nn12    88
Nc1nc2c(ncn2CCN2CCN(c3ncc(F)cn3)CC2)c2nc(-c3ccco3)nn12    378

P: COCCOc1ccc(N2CCN(CCn3cnc4c3nc(N)n3nc(-c5cccc[n+]5[O-])nc43)CC2)cc1
Q: Nc1nc2c(ncn2CCN2CCOCC2)c2nc(-c3ccco3)nn12
R: Nc1nc2c(ncn2CCN2CCN(c3ccc(Cl)cc3F)CC2)c2nc(-c3ccco3)nn12
S: COCCOc1ccc(N2CCN(CCn3cnc4c3nc(N)n3nc(-c5ccccc5C)nc43)CC2)cc1
Ascending by Selectivity ratio, please. Provide your answer as the labels ordered per the instruction.
P, Q, S, R
(P: 17, Q: 37, S: 76, R: 403)

I: Nc1nc2c(ncn2Cc2ccccc2Br)c2nc(-c3ccco3)nn12
II: COCCOc1ccc(N2CCN(CCn3cnc4c3nc(N)n3nc(-c5ccco5)nc43)CC2)c(C(F)(F)F)c1
Identify the item whose Selectivity ratio is the smaller number: I or II API: response body contains the label of the selected item.
I
